Origin of values: paper PMC10425210

assay details: Plasma pharmacokinetics after a single subcutaneous administration of LEN
Type: in vivo, rhesus macaques
test parameters: male, Indian-origin (outbred), rhesus monkey, plasma, subcutaneous, 20 mg/kg, Plasma LEN (Mean), 20 mg/kg sc, week 12 post dose

compound	readout units	concentration at 12 week
CC(C)(C#Cc1ccc(-c2ccc(Cl)c3c(NS(C)(=O)=O)nn(CC(F)(F)F)c23)c([C@H](Cc2cc(F)cc(F)c2)NC(=O)Cn2nc(C(F)(F)F)c3c2C(F)(F)[C@@H]2C[C@H]32)n1)S(C)(=O)=O [LEN, Lenacapavir]	nM	9.8

----------
assay details: Plasma pharmacokinetics after a single subcutaneous administration of LEN
Assay type: in vivo, rhesus macaques
test parameters: male, outbred Indian-origin, rhesus monkey, plasma, subcutaneous, LEN exposures at the time of challenge, 11 challenged animals, week 7 postdose

smiles text	concentration at 7 weeks
CC(C)(C#Cc1ccc(-c2ccc(Cl)c3c(NS(C)(=O)=O)nn(CC(F)(F)F)c23)c([C@H](Cc2cc(F)cc(F)c2)NC(=O)Cn2nc(C(F)(F)F)c3c2C(F)(F)[C@@H]2C[C@H]32)n1)S(C)(=O)=O	18 to 177 nM

----------
assay details: Plasma pharmacokinetics after a single subcutaneous administration of LEN
Assay type: in vivo, rhesus macaques
test parameters: male, Indian-origin (outbred), rhesus monkey, plasma, subcutaneous, 75 mg/kg, Plasma LEN, animal V435, 75 mg/kg, week 2 post challenge

smiles text	concentration at 2 weeks post challenge
CC(C)(C#Cc1ccc(-c2ccc(Cl)c3c(NS(C)(=O)=O)nn(CC(F)(F)F)c23)c([C@H](Cc2cc(F)cc(F)c2)NC(=O)Cn2nc(C(F)(F)F)c3c2C(F)(F)[C@@H]2C[C@H]32)n1)S(C)(=O)=O	12.4 nM

----------
assay details: Plasma pharmacokinetics after a single subcutaneous administration of LEN
Format: in vivo, rhesus macaques
test parameters: male, Indian-origin (outbred), rhesus monkey, plasma, subcutaneous, 75 mg/kg, Plasma LEN, animal CP67, 75 mg/kg, week 4 post challenge

smiles text	concentration at 4 weeks post challenge
CC(C)(C#Cc1ccc(-c2ccc(Cl)c3c(NS(C)(=O)=O)nn(CC(F)(F)F)c23)c([C@H](Cc2cc(F)cc(F)c2)NC(=O)Cn2nc(C(F)(F)F)c3c2C(F)(F)[C@@H]2C[C@H]32)n1)S(C)(=O)=O	88.1 nM

----------
assay details: Plasma pharmacokinetics after a single subcutaneous administration of LEN
Type: in vivo, rhesus macaques
test parameters: male, Indian-origin, outbred, rhesus monkey, plasma, subcutaneous, 5 mg/kg, Plasma LEN (Mean), 5 mg/kg sc, week 2 post dose

molecule	concentration at 2 week
CC(C)(C#Cc1ccc(-c2ccc(Cl)c3c(NS(C)(=O)=O)nn(CC(F)(F)F)c23)c([C@H](Cc2cc(F)cc(F)c2)NC(=O)Cn2nc(C(F)(F)F)c3c2C(F)(F)[C@@H]2C[C@H]32)n1)S(C)(=O)=O [LEN, Lenacapavir]	2.96 nM

----------
assay details: Plasma pharmacokinetics after a single subcutaneous administration of LEN
Assay type: in vivo, rhesus macaques
test parameters: male, Indian-origin (outbred), rhesus monkey, plasma, subcutaneous, 10 mg/kg, Plasma LEN (Mean), 10 mg/kg sc, week 8 post dose
Procedure: All animals were housed at Bioqual Inc. For the in vivo SHIV stock titration study, 8 untreated outbred Indian-origin male rhesus macaques aged 3–5 years were challenged intrarectally per round for a total of 5 challenge rounds using increasing virus doses ranging from 0.625 to 100 TCID50, with the 100 TCID50 round performed twice for increased resolution (Supplemental Table 2). Plasma viral load was measured to confirm the infection status. […]
readout name: concentration at 8 week (nM)

compound	test value
CC(C)(C#Cc1ccc(-c2ccc(Cl)c3c(NS(C)(=O)=O)nn(CC(F)(F)F)c23)c([C@H](Cc2cc(F)cc(F)c2)NC(=O)Cn2nc(C(F)(F)F)c3c2C(F)(F)[C@@H]2C[C@H]32)n1)S(C)(=O)=O [LEN, Lenacapavir]	9.6

----------
assay details: Plasma pharmacokinetics after a single subcutaneous administration of LEN
Assay type: in vivo, rhesus macaques
test parameters: male, Indian-origin (outbred), rhesus monkey, plasma, subcutaneous, 75 mg/kg, Plasma LEN (Mean), 75 mg/kg sc, week 9 post dose
readout name: concentration at 9 week

compound	readout name	test value
CC(C)(C#Cc1ccc(-c2ccc(Cl)c3c(NS(C)(=O)=O)nn(CC(F)(F)F)c23)c([C@H](Cc2cc(F)cc(F)c2)NC(=O)Cn2nc(C(F)(F)F)c3c2C(F)(F)[C@@H]2C[C@H]32)n1)S(C)(=O)=O [LEN, Lenacapavir]	concentration at 9 week	72.6 nM

----------
assay details: Plasma pharmacokinetics after a single subcutaneous administration of LEN
Type: in vivo, rhesus macaques
test parameters: male, Indian-origin, outbred, rhesus monkey, plasma, subcutaneous, 50 mg/kg, Plasma LEN (Mean), 50 mg/kg sc, week 20 post dose

smiles text	concentration at 20 week
CC(C)(C#Cc1ccc(-c2ccc(Cl)c3c(NS(C)(=O)=O)nn(CC(F)(F)F)c23)c([C@H](Cc2cc(F)cc(F)c2)NC(=O)Cn2nc(C(F)(F)F)c3c2C(F)(F)[C@@H]2C[C@H]32)n1)S(C)(=O)=O	8.52 nM

----------
assay details: Plasma pharmacokinetics after a single subcutaneous administration of LEN
Type: in vivo, rhesus macaques
test parameters: male, Indian-origin, outbred, rhesus monkey, plasma, subcutaneous, 75 mg/kg, Plasma LEN (Mean), 75 mg/kg sc, week 19 post dose

smiles text	readout units	concentration at 19 week
CC(C)(C#Cc1ccc(-c2ccc(Cl)c3c(NS(C)(=O)=O)nn(CC(F)(F)F)c23)c([C@H](Cc2cc(F)cc(F)c2)NC(=O)Cn2nc(C(F)(F)F)c3c2C(F)(F)[C@@H]2C[C@H]32)n1)S(C)(=O)=O	nM	16.2

----------
assay details: Plasma pharmacokinetics after a single subcutaneous administration of LEN
Type: in vivo, rhesus macaques
test parameters: male, Indian-origin (outbred), rhesus monkey, plasma, subcutaneous, 75 mg/kg, Plasma LEN, animal CP67, 75 mg/kg, week 1 post challenge

smiles text	readout units	concentration at 1 weeks post challenge
CC(C)(C#Cc1ccc(-c2ccc(Cl)c3c(NS(C)(=O)=O)nn(CC(F)(F)F)c23)c([C@H](Cc2cc(F)cc(F)c2)NC(=O)Cn2nc(C(F)(F)F)c3c2C(F)(F)[C@@H]2C[C@H]32)n1)S(C)(=O)=O	nM	95.4

----------
assay details: Plasma pharmacokinetics after a single subcutaneous administration of LEN
Format: in vivo, rhesus macaques
test parameters: male, outbred Indian-origin, rhesus monkey, plasma; 50 mg/kg sc, mean ± SD

smiles text	readout units	AUC(0-inf)
CC(C)(C#Cc1ccc(-c2ccc(Cl)c3c(NS(C)(=O)=O)nn(CC(F)(F)F)c23)c([C@H](Cc2cc(F)cc(F)c2)NC(=O)Cn2nc(C(F)(F)F)c3c2C(F)(F)[C@@H]2C[C@H]32)n1)S(C)(=O)=O	µM·h	243

----------
assay details: Plasma pharmacokinetics after a single subcutaneous administration of LEN
Assay type: in vivo, rhesus macaques
test parameters: male, Indian-origin (outbred), rhesus monkey, plasma, subcutaneous, 75 mg/kg, Plasma LEN (Mean), 75 mg/kg sc, week 13 post dose
readout name: concentration at 13 week (nM)

smiles text	test value
CC(C)(C#Cc1ccc(-c2ccc(Cl)c3c(NS(C)(=O)=O)nn(CC(F)(F)F)c23)c([C@H](Cc2cc(F)cc(F)c2)NC(=O)Cn2nc(C(F)(F)F)c3c2C(F)(F)[C@@H]2C[C@H]32)n1)S(C)(=O)=O	73.8

----------
assay details: Plasma pharmacokinetics after a single subcutaneous administration of LEN
Format: in vivo, rhesus macaques
test parameters: male, Indian-origin, outbred, rhesus monkey, plasma, subcutaneous, 50 mg/kg, Plasma LEN (Mean), 50 mg/kg sc, week 24 post dose

compound	readout units	concentration at 24 week
CC(C)(C#Cc1ccc(-c2ccc(Cl)c3c(NS(C)(=O)=O)nn(CC(F)(F)F)c23)c([C@H](Cc2cc(F)cc(F)c2)NC(=O)Cn2nc(C(F)(F)F)c3c2C(F)(F)[C@@H]2C[C@H]32)n1)S(C)(=O)=O [LEN, Lenacapavir]	nM	6.32

----------
assay details: Plasma pharmacokinetics after a single subcutaneous administration of LEN
Type: in vivo, rhesus macaques
test parameters: male, outbred Indian-origin, rhesus monkey, plasma, subcutaneous, 20 mg/kg, Plasma LEN (Mean), 20 mg/kg sc, week 5 post dose
readout name: concentration at 5 weeks (nM)

smiles text	test value
CC(C)(C#Cc1ccc(-c2ccc(Cl)c3c(NS(C)(=O)=O)nn(CC(F)(F)F)c23)c([C@H](Cc2cc(F)cc(F)c2)NC(=O)Cn2nc(C(F)(F)F)c3c2C(F)(F)[C@@H]2C[C@H]32)n1)S(C)(=O)=O	30.1

----------
assay details: Plasma pharmacokinetics after a single subcutaneous administration of LEN
Assay type: in vivo, rhesus macaques
test parameters: male, Indian-origin (outbred), rhesus monkey, plasma, subcutaneous, 75 mg/kg, Plasma LEN, animal CP67, 75 mg/kg, week 5 post challenge
readout name: concentration at 5 weeks post challenge

smiles text	test value
CC(C)(C#Cc1ccc(-c2ccc(Cl)c3c(NS(C)(=O)=O)nn(CC(F)(F)F)c23)c([C@H](Cc2cc(F)cc(F)c2)NC(=O)Cn2nc(C(F)(F)F)c3c2C(F)(F)[C@@H]2C[C@H]32)n1)S(C)(=O)=O	87.8 nM
